- Species: Sus scrofa
- methodDescription: Displacement of [3H]-(+)-MK-801 from NMDA receptor PCP binding site in pig brain cortex assessed as residual binding at 10 uM after 150 mins by scintillation counting
experimentalReadout: Activity (%)

a = C/C(=C\CN1CCOCC1)c1ccc2ccccc2c1
b = C/C(=C\CN1CCOCC1)c1ccc(-c2ccccc2)cc1
c = COc1ccc(/C(C)=C/CN2CCC(Cc3ccccc3)CC2)cc1
d = C/C(=C\CN1CCOCC1)c1ccccc1
e = COc1ccc(/C(C)=C/CN2CCOCC2)cc1
Please put the 5 compounds above in a list ordered by falling Activity. To answer, write out the labels according to the requested order.
b, a, d, e, c
(b: 69%, a: 31%, d: 19%, e: 10%, c: 0%)

1 = COc1ccc(/C(C)=C/CN(C)Cc2ccccc2)cc1
2 = COc1ccc(/C(C)=C/CN2CCCCC2)cc1
In the pair 1 and 2 , the larger recorded Activity belongs to which? Please reply using the label of the selected record.
1
(1: 27%, 2: 0%)
